target: human TLR7 (Homo sapiens, UniProt Q9NYK1); test: TLR7 inhibition reporter assay (HEK-Blue cells, secreted embryonic alkaline phosphatase reporter); conditions: HEK-Blue cells overexpressing human TLR7, stimulated with gardiquimod 7.5 μM; read-out: TLR 7 IC50
Sequence (Q9NYK1 27-1049): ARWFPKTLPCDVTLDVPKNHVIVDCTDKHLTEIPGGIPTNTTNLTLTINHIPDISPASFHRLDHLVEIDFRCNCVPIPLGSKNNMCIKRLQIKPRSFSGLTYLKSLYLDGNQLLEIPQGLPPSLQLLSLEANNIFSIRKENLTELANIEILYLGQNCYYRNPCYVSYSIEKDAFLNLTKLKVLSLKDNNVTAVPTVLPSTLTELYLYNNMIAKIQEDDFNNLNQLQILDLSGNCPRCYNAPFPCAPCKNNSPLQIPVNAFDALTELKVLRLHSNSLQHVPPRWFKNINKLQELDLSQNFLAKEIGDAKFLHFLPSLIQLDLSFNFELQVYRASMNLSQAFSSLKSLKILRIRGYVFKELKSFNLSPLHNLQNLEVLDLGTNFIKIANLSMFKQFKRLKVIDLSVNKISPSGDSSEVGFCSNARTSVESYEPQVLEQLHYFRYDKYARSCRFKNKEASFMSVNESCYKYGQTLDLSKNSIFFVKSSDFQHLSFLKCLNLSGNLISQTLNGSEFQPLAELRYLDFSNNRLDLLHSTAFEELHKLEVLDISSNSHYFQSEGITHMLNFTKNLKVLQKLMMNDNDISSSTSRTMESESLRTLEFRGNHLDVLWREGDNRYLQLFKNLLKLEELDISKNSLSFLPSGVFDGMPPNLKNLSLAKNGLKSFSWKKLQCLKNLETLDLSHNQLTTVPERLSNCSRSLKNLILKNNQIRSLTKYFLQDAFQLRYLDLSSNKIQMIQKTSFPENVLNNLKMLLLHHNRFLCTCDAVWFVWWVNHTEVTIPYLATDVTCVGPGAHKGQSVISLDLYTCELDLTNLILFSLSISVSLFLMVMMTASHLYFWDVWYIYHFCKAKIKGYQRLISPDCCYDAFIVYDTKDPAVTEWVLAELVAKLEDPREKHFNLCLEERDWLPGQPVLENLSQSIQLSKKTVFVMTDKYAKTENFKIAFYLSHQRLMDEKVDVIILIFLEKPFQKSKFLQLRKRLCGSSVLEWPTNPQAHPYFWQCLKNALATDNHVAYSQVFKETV
endpoint.name: IC50 (µM)

Cn1c(-c2ccc(S(C)(=O)=O)cc2)nc2c(F)c(C3CCN(C4CC5CCC(C4)N5CC4COC4)CC3)ccc21 (single isomer, unassigned) [Example 194]; 45.6
Cn1c(-c2ccc(S(C)(=O)=O)cc2)nc2cc(F)c(C3CCN(C4CC5CCC(C4)N5CC4CC4)CC3)cc21 (stereo not shown) [Example 230]; 32.4

P = Cn1c(-c2ccc(S(C)(=O)=O)cc2)nc2c(F)cc(C3CCN(C4CCCN(C5COC5)CC4)CC3)cc21 (single isomer, unassigned) [Example 108]
Q = CS(=O)(=O)c1ccc(-c2nc3c(F)cc(C4CCN(C5CCN(C6CCOCC6)CC5)CC4)cc3n2C2CC2)cc1
R = Cn1c(-c2ccc(S(C)(=O)=O)cc2)nc2c(F)cc(C3CCN(C4CCCN(C5CCOCC5)CC4)CC3)cc21 (stereo not shown) [Example 300]
S = CC(C)N1C2CCC1CC(N1CCC(c3cc(F)c4nc(-c5ccc(S(C)(=O)=O)cc5)n(C)c4c3)CC1)C2 (single isomer, unassigned) [Example 107]
In: Write the entries in order, lowest recorded IC50 first. A complete answer lists every label in the requested sequence.
Out: Q, R, S, P

----------
Molecular target: human TLR9 (Homo sapiens)
Construct: host or cells: HEK-Blue cells (HEK293-derived reporter line)
Sequence (Q9NR96 26-1032): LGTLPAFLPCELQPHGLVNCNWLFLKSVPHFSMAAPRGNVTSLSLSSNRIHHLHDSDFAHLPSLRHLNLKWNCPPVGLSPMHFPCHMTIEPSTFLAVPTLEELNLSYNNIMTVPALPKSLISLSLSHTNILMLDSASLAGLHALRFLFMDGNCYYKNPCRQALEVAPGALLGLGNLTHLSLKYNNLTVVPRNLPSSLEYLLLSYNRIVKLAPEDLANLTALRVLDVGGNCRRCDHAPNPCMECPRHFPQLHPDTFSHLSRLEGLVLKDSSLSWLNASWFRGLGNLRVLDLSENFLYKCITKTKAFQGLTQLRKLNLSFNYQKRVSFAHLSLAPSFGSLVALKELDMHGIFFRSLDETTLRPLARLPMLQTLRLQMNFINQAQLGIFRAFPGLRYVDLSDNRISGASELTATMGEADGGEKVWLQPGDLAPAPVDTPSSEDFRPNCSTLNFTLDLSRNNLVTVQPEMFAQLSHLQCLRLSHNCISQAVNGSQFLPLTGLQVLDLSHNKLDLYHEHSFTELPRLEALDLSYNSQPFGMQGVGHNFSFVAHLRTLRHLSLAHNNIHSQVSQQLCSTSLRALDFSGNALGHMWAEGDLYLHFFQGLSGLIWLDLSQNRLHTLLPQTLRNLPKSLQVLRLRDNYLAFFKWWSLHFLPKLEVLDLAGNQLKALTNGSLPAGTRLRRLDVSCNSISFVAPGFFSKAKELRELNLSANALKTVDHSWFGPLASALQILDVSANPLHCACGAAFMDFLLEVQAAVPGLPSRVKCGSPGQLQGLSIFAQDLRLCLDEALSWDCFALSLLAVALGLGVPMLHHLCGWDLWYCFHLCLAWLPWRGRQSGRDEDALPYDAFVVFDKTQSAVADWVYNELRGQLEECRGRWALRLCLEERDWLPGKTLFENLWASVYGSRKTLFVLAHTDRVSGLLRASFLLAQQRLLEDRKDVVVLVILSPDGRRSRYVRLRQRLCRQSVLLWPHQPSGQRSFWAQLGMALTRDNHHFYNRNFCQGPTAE
Test: TLR9 inhibition reporter assay (HEK-Blue cells, secreted embryonic alkaline phosphatase reporter)
Format: cell-based
Conditions: HEK-Blue cells overexpressing human TLR9, stimulated with ODN2006 5 nM; read-out: TLR 9 IC50
pIC50: −log10 of the molar value.
endpoint.name: pIC50

CC(C)N1C2CCC1CC(N1CCC(c3ccc4c(nc(-c5ccc(S(C)(=O)=O)cc5)n4C)c3F)CC1)C2 (single isomer, unassigned) [Example 89]; 6.79
Cc1cc(C2CCN(C3CC4CCC(C3)N4C3COC3)CC2)cc2c1nc(-c1ccc(S(C)(=O)=O)cc1)n2C (single isomer, unassigned) [Example 158]; 5.79
Cc1cc(C2CCN(C3CC4CCC(C3)N4C3CCOCC3)CC2)cc2c1nc(-c1ccc(S(C)(=O)=O)cc1)n2C (single isomer, unassigned) [Example 160]; 7.28
Cc1cc(-c2ccc(N3CCC(N4CCCC4)CC3)cc2)cc2c1nc(-c1ccc(S(C)(=O)=O)cc1)n2C [Example 367]; 6.29
Cc1cc(-c2ccc(C3CCN(C4CCN(C)CC4)CC3)cc2)cc2c1nc(-c1ccc(S(C)(=O)=O)cc1)n2C [Example 400]; 7.12

A = Cc1cc(-c2ccc(C3CCN(C4CCN(C5CC5)CC4)CC3)cc2)cc2c1nc(-c1ccc(S(C)(=O)=O)cc1)n2C [Example 401]
B = Cn1c(-c2ccc(S(C)(=O)=O)cc2)nc2ccc(C3CCN(C4CCN(C5COC5)CC4)CC3)c(F)c21 [Example 263]
In: # min-compare on pIC50 between A and B Indicate your choice by writing its label.
Out: B
(B: 5.75, A: 6.98)

----------
Target: human TLR9 (Homo sapiens)
Construct: host or cells: HEK-Blue cells (HEK293-derived reporter line)
Sequence (Q9NR96 26-1032): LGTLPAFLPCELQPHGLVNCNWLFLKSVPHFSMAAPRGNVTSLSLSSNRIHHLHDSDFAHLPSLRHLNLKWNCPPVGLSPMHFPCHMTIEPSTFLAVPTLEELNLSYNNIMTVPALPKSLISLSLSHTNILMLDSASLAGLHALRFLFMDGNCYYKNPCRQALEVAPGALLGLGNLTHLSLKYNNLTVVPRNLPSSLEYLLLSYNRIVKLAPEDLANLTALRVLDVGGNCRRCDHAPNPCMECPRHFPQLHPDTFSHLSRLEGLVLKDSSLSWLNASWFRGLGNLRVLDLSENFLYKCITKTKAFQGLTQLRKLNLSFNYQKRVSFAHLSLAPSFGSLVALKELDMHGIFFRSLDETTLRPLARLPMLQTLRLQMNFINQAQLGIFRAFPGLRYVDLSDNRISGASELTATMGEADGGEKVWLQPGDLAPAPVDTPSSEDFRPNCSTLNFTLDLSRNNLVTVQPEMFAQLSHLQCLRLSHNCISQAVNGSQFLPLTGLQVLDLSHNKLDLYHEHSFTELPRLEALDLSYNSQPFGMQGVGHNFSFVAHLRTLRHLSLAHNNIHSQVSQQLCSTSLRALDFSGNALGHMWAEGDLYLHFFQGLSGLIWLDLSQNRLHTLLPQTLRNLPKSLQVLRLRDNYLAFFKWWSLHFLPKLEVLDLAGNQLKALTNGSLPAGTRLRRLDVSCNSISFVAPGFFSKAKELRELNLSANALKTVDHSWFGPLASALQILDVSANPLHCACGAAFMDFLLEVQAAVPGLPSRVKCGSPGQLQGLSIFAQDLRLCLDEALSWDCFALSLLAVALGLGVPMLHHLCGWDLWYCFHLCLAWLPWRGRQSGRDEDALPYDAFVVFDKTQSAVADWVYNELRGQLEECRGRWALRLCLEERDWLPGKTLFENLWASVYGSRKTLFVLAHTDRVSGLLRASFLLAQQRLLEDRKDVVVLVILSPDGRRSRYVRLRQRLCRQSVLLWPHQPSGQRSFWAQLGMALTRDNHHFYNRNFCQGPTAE
Test: TLR9 inhibition reporter assay (HEK-Blue cells, secreted embryonic alkaline phosphatase reporter)
Assay type: cell-based
Conditions: HEK-Blue cells overexpressing human TLR9, stimulated with ODN2006 5 nM; read-out: TLR 9 IC50
endpoint.name: IC50 (µM)

COc1ccc(-c2nc3c(C)cc(C4CCN(C5CCN(C6CC6)CC5)CC4)cc3n2C)cc1OC [Example 46, tris(2,2,2-trifluoroacetate)]; 0.61
CN(C)C1CCN(Cc2ccc(-c3ccc4nc(-c5ccc(C#N)cc5)n(C)c4c3)cc2)CC1 [Example 383]; 0.068

I = Cn1c(-c2ccc(S(C)(=O)=O)cc2)nc2c(F)cc(C3CCN(C4CC5CCC(C4)N5C4COC4)CC3)cc21 (stereo not shown) [Example 286]
II = Cc1cc(C2CCN(C3CCN(CC(C)C)CC3)CC2)cc2[nH]c(-c3ccc(OC(F)(F)F)cc3)nc12 [Example 63]
In: Of the two listed items, I and II , which carries the larger IC50 figure? Indicate your choice by writing its label.
Out: II
(II: 0.196 µM, I: 0.041 µM)

----------
Quick reference for pIC50 among some compounds
target: human TLR8 (Homo sapiens); assay: TLR8 inhibition reporter assay (HEK-Blue cells, secreted embryonic alkaline phosphatase reporter); details: HEK-Blue cells overexpressing human TLR8, stimulated with R848 15.9 μM; read-out: TLR 8 IC50
Sequence (Q9NR97 27-1041): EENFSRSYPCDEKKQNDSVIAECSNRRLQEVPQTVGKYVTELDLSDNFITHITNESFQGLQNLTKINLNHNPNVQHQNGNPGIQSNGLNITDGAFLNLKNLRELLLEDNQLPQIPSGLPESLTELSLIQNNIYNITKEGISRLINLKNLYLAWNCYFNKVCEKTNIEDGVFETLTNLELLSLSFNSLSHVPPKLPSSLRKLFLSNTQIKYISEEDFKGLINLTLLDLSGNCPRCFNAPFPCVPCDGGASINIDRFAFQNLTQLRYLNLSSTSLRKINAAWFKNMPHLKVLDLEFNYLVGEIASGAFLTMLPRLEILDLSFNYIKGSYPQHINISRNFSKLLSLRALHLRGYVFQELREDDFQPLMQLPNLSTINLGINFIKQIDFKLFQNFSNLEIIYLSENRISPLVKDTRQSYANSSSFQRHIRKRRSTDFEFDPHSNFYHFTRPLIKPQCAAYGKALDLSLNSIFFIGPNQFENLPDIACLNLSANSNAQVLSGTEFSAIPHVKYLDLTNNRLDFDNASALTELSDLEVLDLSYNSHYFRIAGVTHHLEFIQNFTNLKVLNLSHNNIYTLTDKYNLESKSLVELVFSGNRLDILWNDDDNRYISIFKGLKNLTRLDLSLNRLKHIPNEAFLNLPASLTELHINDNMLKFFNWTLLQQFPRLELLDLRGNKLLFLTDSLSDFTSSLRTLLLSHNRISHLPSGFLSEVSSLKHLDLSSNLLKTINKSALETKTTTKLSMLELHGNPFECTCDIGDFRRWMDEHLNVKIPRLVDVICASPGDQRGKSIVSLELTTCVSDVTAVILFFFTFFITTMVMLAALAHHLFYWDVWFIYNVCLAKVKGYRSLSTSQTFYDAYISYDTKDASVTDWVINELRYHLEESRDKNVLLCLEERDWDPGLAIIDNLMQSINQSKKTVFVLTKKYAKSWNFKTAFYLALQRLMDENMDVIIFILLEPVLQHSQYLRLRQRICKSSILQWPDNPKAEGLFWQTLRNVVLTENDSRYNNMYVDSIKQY
pIC50: −log10 of the molar value.

The following compounds have reported results that may help.
CC(C)N1CCC(N2CCC(c3cc(F)c4nc(-c5ccc(S(C)(=O)=O)cc5)n(C)c4c3)CC2)CC1 [Example 105]; < 4.30
Cc1cc(-c2cc(F)cc(CN3CCC(N4CCCC4)CC3)c2)cc2c1nc(-c1ccc(S(C)(=O)=O)cc1)n2C [Example 405]; 6.05

Then this compound:
In: What pIC50 value was documented for this compound, Cc1cc(C2CCN(C3CCCN(C4COC4)CC3)CC2)cc2c1nc(-c1ccc(S(C)(=O)=O)cc1)n2C (stereo not drawn) [Example 304] ?
Out: < 4.30
